- Experimental System: Human MDM2 (HDM2) 1-116 (Homo sapiens, UniProt Q00987)
- Construct: Human MDM2 (HDM2) 1-116
- Sequence (Q00987 1-116): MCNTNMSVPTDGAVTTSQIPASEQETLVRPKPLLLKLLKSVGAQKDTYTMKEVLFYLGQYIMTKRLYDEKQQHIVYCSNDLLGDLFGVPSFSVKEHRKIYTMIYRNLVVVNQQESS
- Test Description: Fluorescence polarization assay 2, MDM2 (Table 4)
- Type: binding
- Cond: Table 4; fluorescence polarization; read-out: MDM2 IC50
pIC50: −log10 of the molar value. Non-standard residues stand in square brackets, D forms with d. Residues, ends and D or L forms follow the SMILES beside them. Ala(4-thiazolyl) = N[C@@H](Cc1cscn1)C(=O)O; NMePhe(4-F) = CN[C@@H](Cc1ccc(F)cc1)C(=O)O; Phe(4-Cl) = N[C@@H](Cc1ccc(Cl)cc1)C(=O)O; Phe(4-F) = N[C@@H](Cc1ccc(F)cc1)C(=O)O; Tle = CC(C)(C)[C@H](N)C(=O)O; Pip = O=C(O)[C@@H]1CCCCN1; hSer = N[C@@H](CCO)C(=O)O; NMeA = CN[C@@H](C)C(=O)O; dNMeA = CN[C@H](C)C(=O)O; Nme = COCCNCC(=O)O
Readout: pIC50

Sample records with pIC50:
[[record]]
molecule = "COCC[C@@H]1NC(=O)[C@H]2CCCN2C(=O)[C@H](Cc2ccc(F)cc2)N(C)C(=O)[C@H](Cc2ccc(Cl)cc2)NC(=O)[C@@H]2CCCCN2C(=O)[C@H](Cc2ccc(F)cc2)NC(=O)CN(CCOC)C(=O)[C@@H](C)N(C)C(=O)[C@H](Cc2cscn2)NC(=O)[C@H](C)N(C)C1=O [Compound 46] (cyclo([Ala(4-thiazolyl)][dNMeA][Nme][Phe(4-F)][Pip][Phe(4-Cl)][NMePhe(4-F)][dP][hSer](Me)[NMeA]))"
readout = "pIC50"
value = "7.00 to 7.30"

[[record]]
molecule = "COCC[C@@H]1NC(=O)[C@H]2CCCN2C(=O)[C@H](Cc2ccc(F)cc2)N(C)C(=O)[C@H](Cc2ccc(Cl)cc2)NC(=O)[C@H](C(C)(C)C)NC(=O)[C@H](Cc2ccc(F)cc2)NC(=O)[C@H](C)N(C)C(=O)[C@@H](C)N(C)C(=O)[C@H](Cc2cscn2)NC(=O)[C@H](C)N(C)C1=O [Compound 38] (cyclo([Ala(4-thiazolyl)][dNMeA][NMeA][Phe(4-F)][Tle][Phe(4-Cl)][NMePhe(4-F)][dP][hSer](Me)[NMeA]))"
readout = "pIC50"
value = "7.30 to 7.60"


Item under review: COCC[C@@H]1NC(=O)[C@H]2CCCN2C(=O)[C@H](Cc2ccc(F)cc2)N(C)C(=O)[C@H](Cc2ccc(Cl)cc2)NC(=O)[C@@H]2CCCN2C(=O)[C@H](Cc2ccc(F)cc2)NC(=O)CN(CCOC)C(=O)[C@@H](C)N(C)C(=O)[C@H](Cc2cscn2)NC(=O)[C@H](C)N(C)C1=O [Compound 47] (cyclo([Ala(4-thiazolyl)][dNMeA][Nme][Phe(4-F)]P[Phe(4-Cl)][NMePhe(4-F)][dP][hSer](Me)[NMeA])) . Reported pIC50? 7.30 to 7.60
